Property name: melting point

# Smiles repr, Result
data = [
    ("CCNC(=O)NCCO", "53 to 55 °C"),
    ("CC1=NN(C)C(=O)C1", "109 to 111 °C"),
    ("COc1ccc(-c2nn(-c3ccccc3)cc2C=CC(=O)O)cc1", "238 to 240 °C"),
    ("Cc1cc(S(N)(=O)=O)ccc1[N+](=O)[O-]", "131 to 133 °C"),
    ("O=C(O)CCC(=O)N1CCC(O)CC1", "121 to 123 °C"),
    ("Cc1nc(O)c2c(n1)CN(Cc1ccccc1)CC2", "211 to 213 °C"),
    ("O=C1OC(=O)c2cc([N+](=O)[O-])cc3cc([N+](=O)[O-])cc1c23", "216 to 218 °C"),
    ("NC(CN1CCCCCC1)=NO", "124 to 126 °C"),
]

---

Below, each entry is listed alongside its reported melting point.

# Smiles repr, melting point
records = [
    ("CSc1ccc(Cl)c(C(N)=O)c1", "144 to 146 °C"),
    ("CS(=O)(=O)Nc1ccc(S(N)(=O)=O)cc1F", "190 to 192 °C"),
    ("Nc1cc(-c2cc3ccccc3o2)n[nH]1", "124 to 126 °C"),
    ("CC(=O)CN1C(=O)COCC1=O", "77 to 79 °C"),
    ("COCCCOc1cccc(C(=O)O)c1", "81 to 83 °C"),
    ("CC(C)(C)c1ccc(C(=O)O)s1", "119 to 121 °C"),
    ("O=C(O)c1cc(S(=O)(=O)Cl)ccc1F", "107 to 109 °C"),
    ("Sc1ncccc1Br", "199 to 201 °C"),
    ("Nc1cc(C(F)(F)F)ccc1NCc1ccccc1", "70 to 75 °C"),
]

---

Property name: melting point

# Compound, Result
rows = [
    ("COC(=O)Cn1ncc2c(=O)[nH]cnc21", "212 to 214 °C"),
    ("CC(=O)N(CCC(N)=S)C(C)C", "104 to 106 °C"),
    ("O=C(Cc1ccccn1)c1ccc(Cl)cc1", "99 to 101 °C"),
    ("CC1NCCn2c(C(=O)NC3CC3)ccc21 (stereo unspecified)", "128 to 130 °C"),
    ("Sc1nc(-c2ccccc2)ns1", "161 to 163 °C"),
    ("Cc1nn(-c2cccc(Cl)c2)c2ncc(Br)cc12", "114 to 116 °C"),
    ("O=C(O)c1cn(-c2ccccc2Cl)nn1", "133 to 135 °C"),
    ("Cc1cc(C=O)c(C)[nH]1", "139 to 141 °C"),
    ("CS(=O)(=O)c1ccc2nnn(O)c2c1", "192 to 194 °C"),
    ("Cc1nn2c(CO)c(C(C)C)nc2s1", "119 to 121 °C"),
    ("Cc1ccc(C2CNCCO2)c(C)c1 (stereo unspecified)", "49 to 51 °C"),
    ("O=C1C(Br)CCN1C1CCOCC1 (stereo unspecified)", "67 to 69 °C"),
    ("COc1ccc(C(=O)O)cc1S(=O)(=O)NC1CCCC1", "216 to 218 °C"),
    ("CC(=O)Nc1ccccc1C=O", "67 to 69 °C"),
    ("CCOC(=O)c1cnn(-c2cccc(N)c2)c1C(F)(F)F", "87 to 89 °C"),
    ("Cc1c(C(=O)O)cccc1-c1ccccn1", "211 to 213 °C"),
    ("NC(=S)N1CCN(c2ccc(Cl)cc2)CC1", "176 to 178 °C"),
    ("CC(Br)C(=O)c1ccc(Oc2ccccc2)cc1 (stereo unspecified)", "86 to 88 °C"),
    ("Cc1cc(NC(=O)Nc2cc(C)nn2C)n(C)n1", "209 to 211 °C"),
    ("O=C1c2ccccc2S(=O)(=O)N1CCBr", "94 to 96 °C"),
    ("Fc1ccc(-c2cc3ncnc(Cl)c3s2)cc1", "202 to 206 °C"),
    ("Cc1sc2[nH]c(CCC(=O)O)nc(=O)c2c1C", "249 to 251 °C"),
    ("COc1cc(N)c(C(N)=O)cc1OC", "142 to 144 °C"),
    ("Cc1cccc(-n2nnc(C(=O)O)c2C)c1", "157 to 159 °C"),
    ("O=C1C(Br)CCCN1c1ccccc1Cl (stereo unspecified)", "108 to 110 °C"),
    ("OCCNc1ccncc1", "110 to 112 °C"),
]

---

Property name: melting point

# Smiles repr, Result
data = [
    ("CCN1CCN(Cc2ccc(N)cc2)CC1", "72 to 74 °C"),
    ("O=C1OC(=O)c2cc(F)c(F)cc21", "94 to 96 °C"),
    ("Cc1nn(-c2ccc(F)cc2)c(C)c1CC(=O)O", "171 to 173 °C"),
]

---

Quick reference: melting point of the listed items.

# Compound, melting point
records = [
    ("Cn1ccnc1SCC(=O)Nc1ccccc1C(=O)O", "203 to 205 °C"),
    ("CC(Cn1ccnc1)NC(=O)C1(N)CCCC1 (stereo not drawn)", "239 to 241 °C"),
    ("CC(=O)c1cccc(S(=O)(=O)NC(CC(N)=O)C(=O)O)c1 (stereo not drawn)", "191 to 193 °C"),
    ("CCNC1CCc2[nH]c3ccc(Cl)cc3c2C1 (stereo not drawn)", "174 to 176 °C"),
    ("CC(C)C(=O)N1CCCC(C(=O)O)C1 (stereo not drawn)", "131 to 133 °C"),
    ("CCOC(=O)/C(C#N)=C/Nc1ccc(Br)cc1", "149 to 151 °C"),
    ("O=C(O)C1(Cc2ccccc2)CC1", "102 to 104 °C"),
    ("Cc1cc(C(=O)O)ccc1NS(=O)(=O)C(F)(F)F", "203 to 205 °C"),
    ("NC(=NO)c1ccc(COc2ccccc2F)cc1", "135 to 137 °C"),
    ("c1ccc2c(c1)CC(n1cccn1)CN2 (stereo not drawn)", "102 to 104 °C"),
    ("COc1cc(C#N)ccc1Oc1ccc(N)cc1", "123 to 125 °C"),
    ("CC(C)(C)OC(=O)NCC#N", "53 to 57 °C"),
    ("COC(=O)CCOc1ccc(N)cc1", "51 to 53 °C"),
    ("Cc1nc(Cl)c(C)c(-n2cccn2)n1", "61 to 63 °C"),
    ("Cc1ccc(N)cc1N1CCCS1(=O)=O", "128 to 130 °C"),
    ("CC(=O)c1ccc(N)cc1Cl", "58 to 60 °C"),
    ("CN(C)CCn1nnnc1S", "213 to 215 °C"),
    ("O=C(O)CCOc1ccccc1Br", "111 to 113 °C"),
    ("NS(=O)(=O)Cc1ccc(F)cc1F", "139 to 141 °C"),
    ("Cc1cncc(C=CC(=O)O)c1", "209 to 211 °C"),
    ("CNC1(C(N)=O)CCCC1", "99 to 101 °C"),
    ("COC(=O)c1cc2c(C=O)ccc(OC)c2o1", "171 to 173 °C"),
    ("COc1ccc(-c2cc(N)on2)c(OC)c1OC", "161 to 163 °C"),
    ("Cc1cc(C(F)(F)F)c2c(C)c(C(=O)O)sc2n1", "259 to 261 °C"),
    ("N#Cc1cc(C(=O)c2ccccc2O)cn(-c2ccccn2)c1=O", "147 to 150 °C"),
    ("Nc1c(F)ccc(Cl)c1C(=O)O", "161 to 163 °C"),
    ("O=C1NC(=O)C2(CCc3cc(Cl)ccc32)N1 (stereo not drawn)", "252 to 254 °C"),
    ("O=C(O)c1ccc(-c2ccc(-c3ccccc3)cc2)s1", "272 to 274 °C"),
    ("Cc1nc(-c2ccco2)ccc1C(=O)O", "174 to 176 °C"),
    ("CCCCC1(c2ccc(F)cc2)NC(=O)NC1=O (stereo not drawn)", "113 to 115 °C"),
    ("CC(=O)c1ccc(Cl)c(N)c1", "103 to 105 °C"),
    ("NNS(=O)(=O)c1ccc(Cl)c([N+](=O)[O-])c1", "126 to 128 °C"),
    ("CCOc1ccc(C(C)=O)cc1CN1CCOCC1", "33 to 37 °C"),
    ("CCC(C)c1csc(NC)n1 (stereo not drawn)", "49 to 51 °C"),
    ("CCOC(=O)c1sc(-c2ccc(F)c(F)c2)nc1C", "81 to 83 °C"),
    ("Cc1ccc(C)c(-c2n[nH]c(=O)c3ccccc23)c1", "216 to 218 °C"),
    ("O=C1Nc2ccc(Br)cc2C1=NO", "268 to 270 °C"),
    ("Cc1cc(-c2nnn[nH]2)ccc1F", "109 to 111 °C"),
    ("CCN(CC)C(=O)N1CCC(C(=O)O)CC1", "96 to 98 °C"),
    ("O=C1COc2ccc(Cl)cc21", "115 to 117 °C"),
    ("CC(C)(C)OC(=O)NCc1cccc(C(N)=S)c1", "105 to 107 °C"),
    ("NC(=O)NN=Cc1ccccc1O", "232 to 234 °C"),
    ("NNC(=O)c1csc(N2CCOCC2)n1", "168 to 170 °C"),
    ("O=C(O)c1nn(-c2ccc(F)cc2)c2c1CCCC2", "209 to 211 °C"),
    ("CC(C)(C)OC(=O)N1CCCC(n2cc(C(=O)O)cn2)C1 (stereo not drawn)", "166 to 168 °C"),
    ("COc1cc(CC#N)cc(Cl)c1OCC(F)(F)F", "98 to 100 °C"),
    ("NNC(=O)c1ccoc1", "128 to 130 °C"),
    ("O=C(CC(F)(F)F)c1ccc(Br)cc1", "73 to 75 °C"),
]
